Hello, the source for this data is the nanobody polyreactivity screen of Harvey et al. (2022), in case you need it.

- method description: yeast display, Sf9 membrane polyspecificity reagent, FACS + sequencing; frameworks hold sequencing errors
parameter measured: polyreactivity (PSR sort gate)

Look over these answered cases.
primary sequence	polyreactivity (PSR sort gate)
QVQLQESGGGLVQAGGSLGCAASGNISTRSEMGWYRQAPGKEREFVATINSGGITNYADSVKGRFTISRDNAKNTVYLRMNSLKPEDTAVYYRAVYGDFSDPYDYWGQGTQVTVSS	low polyreactivity
QVQLAESGGALVQAGCSLRLSCSASGYTSAKNVMGWYIQAPGKERELVAAISRSGGRTYYADSVKGRFTISRDNAKNSVYLQMNSLKPEDTAVYYCAARSATNHADDYYYWGQGTQVTVSS	high polyreactivity
QVQLVESGGRLVQAGGSLRVSCAASGSIFRIYSMGWYRQAPGKERELVATISSTGSTYYADSVKGRFTISRDNAKNSVYLQLNSQKPEDTAVYYCAALWKVSSRYWRMDYWGQGTQVTVSS	high polyreactivity
QVHLVVSGGGLVQAGRSLRLICAASGSTFKAYAMGWYRQAPGKERELVAAITRRGTSTYYADSVKGRFTISRDNAKKTVYLQMNSLKPEDTADYYSNAKYVSDRSSAVSFDYWGQGTQVTVSS	low polyreactivity

Q) Name the recorded polyreactivity (PSR sort gate) for "QVQLVESGGGLGQAGGSLRLSCAASGSIFYRYAMGWYRQAPGKERELVAAISSTGSTYYADSVKGRFTISRDHAKNTVYLEMNSLTPEDTAVYYGAARQGYRSYRRYDYWGQGTQVTVSS" .
A) high polyreactivity
